Molecular target: growth factor receptors
Test: cell-based or functional assay
measurementKind: p-Smad1/5/8 (%)

The examples below pair each entry with its known result.
INSERT INTO measurements (binder, reading) VALUES
  ('VVPKPSSAPTQLEPISILYL [GFR-binding compound of SEQ ID NO: 69]', 39),
  ('NDEGLESVPTEERSVKVAKV [GFR-binding compound of SEQ ID NO: 91]', 55),
  ('NDEGLESVPTEESSLSILFF [GFR-binding compound of SEQ ID NO: 80]', 27),
  ('TQVKMRPVQVRKI [GFR-binding compound of SEQ ID NO: 92]', 44),
  ('TVPKPSSAPTQLRSVKVAKV [GFR-binding compound of SEQ ID NO: 83]', 35);

(A) RNVQSRPVPTQLSPISVLYK [GFR-binding compound of SEQ ID NO: 86]
(B) GIPEPSSVPQKMEPLPIVYY [GFR-binding compound of SEQ ID NO: 75]
Among A and B , which shows a numerically higher p-Smad1/5/8 (%) result? Select an item and report its label.
B
